Data credit: the NIST ThermoML archive (doi:10.1021/je900550v)

Details: 295.65 K; 101.33 kPa; Liquid; Vibrating tube method
observable: mass density (kg/m3)
Number only, in kg/m3; omit the unit.

Check out these entries, answers already filled in.
{"compound": "CCCCC(=O)[O-].C[NH2+]CCO [2-hydroxy-N-methylethanaminium pentanoate]", "assay.value": 1017.91}
{"compound": "CCCC(=O)[O-].C[NH2+]CCO [N-methyl-2-hydroxyethylammonium butanoate]", "assay.value": 1040.95}
{"compound": "CC(C)C(=O)[O-].C[NH2+]CCO [2-hydroxy-N-methylethanaminium isobutyrate]", "assay.value": 1044.96}
{"compound": "C[NH2+]CCO.O=C[O-] [2-hydroxy-N-methylethanaminium formate]", "assay.value": 1129.64}
{"compound": "CC(=O)[O-].C[NH2+]CCO [N-methyl-2-hydroxyethylammonium acetate]", "assay.value": 1102.29}

# context switch: different compound, same mass density
// sample CCC(=O)[O-].C[NH2+]CCO [2-hydroxy-N-methylethanaminium propionate] , its mass density was 1072.86

###

Conditions: 314.15 K; 101.33 kPa; Liquid; Vibrating tube method
observable: mass density (kg/m3)
Number only, in kg/m3; omit the unit.

Check out these entries, answers already filled in.
{"compound": "C[NH2+]CCO.O=C[O-] [2-hydroxy-N-methylethanaminium formate]", "mass density [kg/m3]": 1119.32}
{"compound": "CCCCC(=O)[O-].C[NH2+]CCO [2-hydroxy-N-methylethanaminium pentanoate]", "mass density [kg/m3]": 1005.44}
{"compound": "CC(C)C(=O)[O-].C[NH2+]CCO [2-hydroxy-N-methylethanaminium isobutyrate]", "mass density [kg/m3]": 1033}
{"compound": "CCC(=O)[O-].C[NH2+]CCO [2-hydroxy-N-methylethanaminium propionate]", "mass density [kg/m3]": 1060.84}

// sample CC(=O)[O-].C[NH2+]CCO [N-methyl-2-hydroxyethylammonium acetate] , its mass density was 1091.17

// sample CCCC(=O)[O-].C[NH2+]CCO [N-methyl-2-hydroxyethylammonium butanoate] , its mass density was 1028.46

###

A collection of compounds and their measured speed of sound
Conditions: 336.66 K; 101.33 kPa; Liquid; Pulse-echo method
Number only, in m/s; omit the unit.

Check out these entries, answers already filled in.
{"compound": "CCCCC(=O)[O-].C[NH2+]CCO [2-hydroxy-N-methylethanaminium pentanoate]", "observable": "speed of sound", "assay.value": 1430.1}
{"compound": "CC(C)C(=O)[O-].C[NH2+]CCO [2-hydroxy-N-methylethanaminium isobutyrate]", "observable": "speed of sound", "assay.value": 1501.9}
{"compound": "CCCC(=O)[O-].C[NH2+]CCO [N-methyl-2-hydroxyethylammonium butanoate]", "observable": "speed of sound", "assay.value": 1493.9}

// sample C[NH2+]CCO.O=C[O-] [2-hydroxy-N-methylethanaminium formate] , its speed of sound was 1741.1

// sample CCC(=O)[O-].C[NH2+]CCO [2-hydroxy-N-methylethanaminium propionate] , its speed of sound was 1575.2

###

Settings: 323.16 K; 101.33 kPa; Liquid; Vibrating tube method
observable: mass density (kg/m3)
Number only, in kg/m3; omit the unit.

{"molecule": "CC(C)C(=O)[O-].C[NH2+]CCO [2-hydroxy-N-methylethanaminium isobutyrate]", "assay.value": 1027.03}

// sample CCCC(=O)[O-].C[NH2+]CCO [N-methyl-2-hydroxyethylammonium butanoate] , its mass density was 1022.26

// sample CCC(=O)[O-].C[NH2+]CCO [2-hydroxy-N-methylethanaminium propionate] , its mass density was 1054.82

// sample CC(=O)[O-].C[NH2+]CCO [N-methyl-2-hydroxyethylammonium acetate] , its mass density was 1085.62

// sample CCCCC(=O)[O-].C[NH2+]CCO [2-hydroxy-N-methylethanaminium pentanoate] , its mass density was 999.237

// sample C[NH2+]CCO.O=C[O-] [2-hydroxy-N-methylethanaminium formate] , its mass density was 1114.34

###

Settings: 281.4 K; 101.33 kPa; Liquid; Vibrating tube method
observable: mass density (kg/m3)
Number only, in kg/m3; omit the unit.

// sample C[NH2+]CCO.O=C[O-] [2-hydroxy-N-methylethanaminium formate] , its mass density was 1137.6

// sample CC(=O)[O-].C[NH2+]CCO [N-methyl-2-hydroxyethylammonium acetate] , its mass density was 1110.88

// sample CCC(=O)[O-].C[NH2+]CCO [2-hydroxy-N-methylethanaminium propionate] , its mass density was 1082.18

// sample CC(C)C(=O)[O-].C[NH2+]CCO [2-hydroxy-N-methylethanaminium isobutyrate] , its mass density was 1054.04

// sample CCCCC(=O)[O-].C[NH2+]CCO [2-hydroxy-N-methylethanaminium pentanoate] , its mass density was 1027.51

// sample CCCC(=O)[O-].C[NH2+]CCO [N-methyl-2-hydroxyethylammonium butanoate] , its mass density was 1050.54

###

Conditions: 284.65 K; 101.33 kPa; Liquid; Vibrating tube method
Numbers after ± are expanded uncertainties.
observable: mass density

Check out these entries, answers already filled in.
{"compound": "CCCC(=O)[O-].C[NH2+]CCO [N-methyl-2-hydroxyethylammonium butanoate]", "mass density": "1048.35 ± 2.2 kg/m3"}
{"compound": "C[NH2+]CCO.O=C[O-] [2-hydroxy-N-methylethanaminium formate]", "mass density": "1135.79 ± 2.2 kg/m3"}
{"compound": "CCCCC(=O)[O-].C[NH2+]CCO [2-hydroxy-N-methylethanaminium pentanoate]", "mass density": "1025.34 ± 2.2 kg/m3"}
{"compound": "CC(C)C(=O)[O-].C[NH2+]CCO [2-hydroxy-N-methylethanaminium isobutyrate]", "mass density": "1051.95 ± 2.2 kg/m3"}
{"compound": "CCC(=O)[O-].C[NH2+]CCO [2-hydroxy-N-methylethanaminium propionate]", "mass density": "1080.07 ± 2.2 kg/m3"}

# context switch: different compound, same mass density
// sample CC(=O)[O-].C[NH2+]CCO [N-methyl-2-hydroxyethylammonium acetate] , its mass density was 1108.92 ± 2.2 kg/m3

###

Conditions: 307.15 K; 101.33 kPa; Liquid; Pulse-echo method
A collection of compounds and their measured speed of sound
Number only, in m/s; omit the unit.

Check out these entries, answers already filled in.
{"compound": "CCCCC(=O)[O-].C[NH2+]CCO [2-hydroxy-N-methylethanaminium pentanoate]", "uom": "m/s", "speed of sound": 1520.7}
{"compound": "CCCC(=O)[O-].C[NH2+]CCO [N-methyl-2-hydroxyethylammonium butanoate]", "uom": "m/s", "speed of sound": 1586.2}
{"compound": "CC(C)C(=O)[O-].C[NH2+]CCO [2-hydroxy-N-methylethanaminium isobutyrate]", "uom": "m/s", "speed of sound": 1585.9}

// sample CCC(=O)[O-].C[NH2+]CCO [2-hydroxy-N-methylethanaminium propionate] , its speed of sound was 1663.5

// sample C[NH2+]CCO.O=C[O-] [2-hydroxy-N-methylethanaminium formate] , its speed of sound was 1797.8

###

Conditions: 315.91 K; 101.33 kPa; Liquid; Vibrating tube method
observable: mass density (kg/m3)
Number only, in kg/m3; omit the unit.

{"molecule": "CC(C)C(=O)[O-].C[NH2+]CCO [2-hydroxy-N-methylethanaminium isobutyrate]", "observable": "mass density", "assay.value": 1031.85}
{"molecule": "C[NH2+]CCO.O=C[O-] [2-hydroxy-N-methylethanaminium formate]", "observable": "mass density", "assay.value": 1118.35}
{"molecule": "CCCC(=O)[O-].C[NH2+]CCO [N-methyl-2-hydroxyethylammonium butanoate]", "observable": "mass density", "assay.value": 1027.26}

// sample CC(=O)[O-].C[NH2+]CCO [N-methyl-2-hydroxyethylammonium acetate] , its mass density was 1090.1

// sample CCC(=O)[O-].C[NH2+]CCO [2-hydroxy-N-methylethanaminium propionate] , its mass density was 1059.67

// sample CCCCC(=O)[O-].C[NH2+]CCO [2-hydroxy-N-methylethanaminium pentanoate] , its mass density was 1004.24

###

Settings: 303.65 K; 101.33 kPa; Liquid; Vibrating tube method
observable: mass density (kg/m3)
Number only, in kg/m3; omit the unit.

Check out these entries, answers already filled in.
{"compound": "CC(C)C(=O)[O-].C[NH2+]CCO [2-hydroxy-N-methylethanaminium isobutyrate]", "assay.value": 1039.84}
{"compound": "CCC(=O)[O-].C[NH2+]CCO [2-hydroxy-N-methylethanaminium propionate]", "assay.value": 1067.73}
{"compound": "CCCCC(=O)[O-].C[NH2+]CCO [2-hydroxy-N-methylethanaminium pentanoate]", "assay.value": 1012.53}
{"compound": "CC(=O)[O-].C[NH2+]CCO [N-methyl-2-hydroxyethylammonium acetate]", "assay.value": 1097.54}
{"compound": "CCCC(=O)[O-].C[NH2+]CCO [N-methyl-2-hydroxyethylammonium butanoate]", "assay.value": 1035.54}

# context switch: different compound, same mass density
// sample C[NH2+]CCO.O=C[O-] [2-hydroxy-N-methylethanaminium formate] , its mass density was 1125.18
